Biological target: T1, P5A-bN
T1 chain: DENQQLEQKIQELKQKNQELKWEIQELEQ
Test: two-hybrid library CCNG1;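 further: natural log of median RNA to DNA barcode read ratio; higher means stronger binding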
Readout Type: interaction score

// known answers, use as guide
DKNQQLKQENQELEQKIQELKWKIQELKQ [P10A-bN]    -0.55
DKIQQLKQKNQELKQKNQELKWKIQELKQ [P2A-bN]    -0.834
DEIQQLEQEIQELEQKNQELKWKNQELKQ [P3A-bN]    -1.91
DENQQLEQEIQELEQEIQELEWKNQELKQ [P11A-bN]    -1.3

(I) DENQQLEQKIQELKQKNQELKWEIQELEQ [P5A-bN]
(II) DKNQQLKQKIQELKQKIQELKWENQELEQ [P12A-bN]
(III) DEIQQLEQENQELEQENQELEWEIQELEQ [P1A-bN]
Exam item: list the entries in increasing order of interaction score. To answer, arrange all of the labels according to the requested order. I, II, III
(I: -1.81, II: -1.2, III: -0.827)

Source of measurements: paper PMC10397247
